Record form. Attribute: IC50. Fill in for each entry.
Target: Histone deacetylase 3 (Homo sapiens)
Sequence (O15379 whole entry): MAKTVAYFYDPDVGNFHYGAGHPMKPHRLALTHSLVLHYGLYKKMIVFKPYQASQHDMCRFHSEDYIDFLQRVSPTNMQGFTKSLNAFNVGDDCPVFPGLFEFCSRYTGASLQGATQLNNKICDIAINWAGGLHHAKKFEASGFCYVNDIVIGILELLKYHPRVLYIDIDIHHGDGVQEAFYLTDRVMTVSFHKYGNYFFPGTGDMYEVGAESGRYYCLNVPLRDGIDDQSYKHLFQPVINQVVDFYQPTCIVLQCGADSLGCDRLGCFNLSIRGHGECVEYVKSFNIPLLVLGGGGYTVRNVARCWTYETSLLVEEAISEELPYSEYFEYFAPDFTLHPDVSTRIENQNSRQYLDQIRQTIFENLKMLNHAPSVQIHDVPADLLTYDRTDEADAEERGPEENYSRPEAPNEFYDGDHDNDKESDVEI
Please reply with the bare figure in nM and do not write the unit itself.

Q: Any idea what its IC50 is? The molecule is `C[C@@]12CSC(=N1)c1csc(n1)CNC(=O)C[C@@H](/C=C/CCS)OC(=O)[C@H](CCN)NC2=O`
A: 7.8

Q: Any idea what its IC50 is? The molecule is `C[C@@]12CSC(=N1)c1csc(n1)CNC(=O)C[C@@H](/C=C/CCS)OC(=O)[C@H](Cc1ccccc1)NC2=O`
A: 0.68

Q: Any idea what its IC50 is? The molecule is `C[C@@]12CSC(=N1)c1csc(n1)CNC(=O)C[C@@H](/C=C/CCS)OC(=O)[C@H](CCCN)NC2=O`
A: 6

Q: Any idea what its IC50 is? The molecule is `C[C@@]12CSC(=N1)c1csc(n1)CNC(=O)C[C@@H](/C=C/CCS)OC(=O)[C@H](CC(=O)O)NC2=O`
A: 100

Q: Any idea what its IC50 is? The molecule is `C[C@@]12CSC(=N1)c1csc(n1)CNC(=O)C[C@@H](/C=C/CCS)OC(=O)[C@H](Cc1ccc(O)cc1)NC2=O`
A: 0.38

Q: Any idea what its IC50 is? The molecule is `C[C@@]12CSC(=N1)c1csc(n1)CNC(=O)C[C@@H](/C=C/CCS)OC(=O)[C@H](Cc1c[nH]cn1)NC2=O`
A: 1.1

Q: Any idea what its IC50 is? The molecule is `CC(C)(C)OC(=O)NCCC[C@@H]1NC(=O)[C@]2(C)CSC(=N2)c2csc(n2)CNC(=O)C[C@@H](/C=C/CCS)OC1=O`
A: 1.8

* * *

Target: Histone deacetylase 8 (Homo sapiens)
Sequence (Q9BY41 whole entry): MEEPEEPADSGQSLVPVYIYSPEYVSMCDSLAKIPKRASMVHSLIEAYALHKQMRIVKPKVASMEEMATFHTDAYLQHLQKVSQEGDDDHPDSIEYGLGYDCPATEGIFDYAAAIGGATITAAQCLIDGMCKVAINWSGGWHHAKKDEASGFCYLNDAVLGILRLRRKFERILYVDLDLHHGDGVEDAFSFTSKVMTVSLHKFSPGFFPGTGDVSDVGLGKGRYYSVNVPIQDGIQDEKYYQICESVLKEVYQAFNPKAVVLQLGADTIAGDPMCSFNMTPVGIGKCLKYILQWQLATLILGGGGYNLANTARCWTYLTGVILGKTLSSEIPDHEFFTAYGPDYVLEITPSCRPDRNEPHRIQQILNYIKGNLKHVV
Experiment: Inhibition of HDAC8 (unknown origin) incubated at 37 degC for 30 mins
Conditions: read-out: IC50
Record form. Attribute: IC50. Fill in for each entry.
Please reply with the bare figure in nM and do not write the unit itself.

Q: Any idea what its IC50 is? The compound is `CC(C)(C)OC(=O)NCCC[C@@H]1NC(=O)[C@]2(C)CSC(=N2)c2csc(n2)CNC(=O)C[C@@H](/C=C/CCS)OC1=O`
A: 790

Q: Any idea what its IC50 is? The compound is `CC(C)(C)OC(=O)n1cnc(C[C@@H]2NC(=O)[C@]3(C)CSC(=N3)c3csc(n3)CNC(=O)C[C@@H](/C=C/CCS)OC2=O)c1`
A: 540
